Cited source: paper PMC5540273

- System: EPHA1;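 further: KINOMEscan kinase panel screen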
- condition.notes: concentration: 1 μM,replicates: in singlicate; n = 1

[
  {
    "line.notation": "COc1cccc(C2=C(Nc3cccc(Cl)c3)C(=O)NC2=O)c1",
    "unit.descriptor": "%",
    "%Inh": 18
  },
  {
    "line.notation": "Cc1cccc(-c2nc(Nc3ccncc3)c3sccc3n2)n1",
    "unit.descriptor": "%",
    "%Inh": 0
  },
  {
    "line.notation": "O=C(NOCC1CC1)c1cc(Br)c(F)c(F)c1Nc1ccc(I)cc1Cl",
    "unit.descriptor": "%",
    "%Inh": 0
  },
  {
    "line.notation": "COc1cc2nccc(Nc3ccc(Oc4ccccc4)cc3)c2cc1OC.Cl",
    "unit.descriptor": "%",
    "%Inh": 0
  },
  {
    "line.notation": "CC(C)S(=O)(=O)N1CCN(Cc2ccc3c(c2)nc(NC(=O)c2ccsc2)n3C[C@H](O)c2ccccc2)CC1",
    "unit.descriptor": "%",
    "%Inh": 0
  },
  {
    "line.notation": "C[C@@H](Oc1cc(-n2cnc3cc(-c4cnn(C)c4)ccc32)sc1C(N)=O)c1ccccc1Cl",
    "unit.descriptor": "%",
    "%Inh": 19
  },
  {
    "line.notation": "CN(c1ccccc1CNc1nc(Nc2ccc3c(c2)CC(=O)N3)ncc1C(F)(F)F)S(C)(=O)=O",
    "unit.descriptor": "%",
    "%Inh": 12
  }
]
